Where a name gives a salt, the structure may show the parent alone.
We begin with a simple list: items and their reported melting point.

As a guide, the following entries are already answered.
COc1ccc(C)cc1S(=O)(=O)NCCCCC(=O)Nc1nc2c(s1)CCCc1ccc(F)cc1-2 [Example 49]	70 to 75 °C
O=S(=O)(NCCCCCNc1nc2c(s1)CCCc1ccc(F)cc1-2)c1ccccc1F (as salt: HCl) [Example 3]	55 to 57 °C
O=S(=O)(N[C@H]1CC[C@H](CNc2nc3c(s2)CCCc2ccc(F)cc2-3)CC1)c1cccnc1 [Example 62]	158 to 160 °C

input: For the compound shown here, O=S(=O)(CC(F)(F)F)NCCCCNc1nc2c(s1)CCCc1ccc(F)cc1-2 (as salt: TFA) [Example 39] , give the reported melting point.
output: 140 to 141 °C

input: I am curious: what melting point value has been reported for COc1ccc2c(c1)CCCc1sc(NC[C@H]3CC[C@H](NS(C)(=O)=O)CC3)nc1-2 (as salt: salt) [Example 71] ?
output: 94 to 97 °C

input: Value lookup for melting point; key = COc1ccc2c(c1)CCCc1sc(N[C@H]3CC[C@H](CNS(C)(=O)=O)CC3)nc1-2 [Example 72]
output: 224 to 225 °C

input: Could you share which melting point value was measured for CS(=O)(=O)N[C@H]1CC[C@H](Nc2nc3c(s2)CCCc2ccc(F)cc2-3)CC1 [Example 34] ?
output: 179 to 181 °C

* * *

Recorded Ki, one value per entry.
target: hNPY-1,2,4 (human Y1, Y2, Y4 receptors); assay: Radioligand binding to membranes, cloned human Y1, Y2 and Y4 receptors; settings: one bound given for all three

input: Endpoint output: Ki of "CCN(CC)S(=O)(=O)N[C@H]1CC[C@H](Nc2nc3c(s2)CCCc2ccc(F)cc2-3)CC1" . Value?
output: > 10000 nM

input: Which value of Ki has been reported for "O=S(=O)(NCCCCCNc1nc2c(s1)CCCc1ccc(F)cc1-2)c1ccc(F)c(F)c1" in the records?
output: > 10000 nM

input: Query (molecule): "CCN(CC)S(=O)(=O)NCCCCNc1nc2c(s1)CCSc1ccccc1-2" ; field requested: Ki
output: > 10000 nM

input: Which Ki value is on record for "O=S(=O)(NC[C@H]1CC[C@H](Nc2nc3c(s2)CCCc2ccc(F)cc2-3)CC1)c1c(F)cccc1F" ?
output: > 10000 nM

input: Which Ki is listed for "CCS(=O)(=O)NCCCCCNc1nc2c(s1)CCCc1ccc(F)cc1-2" ?
output: > 10000 nM

* * *

Structures can show the parent of a compound that is named as a salt.
propertyLabel: melting point

Look over these answered cases.
CN(C)S(=O)(=O)NC[C@H]1CC[C@H](Nc2nc3c(s2)CCCc2ccc(F)cc2-3)CC1	60 to 65 °C
COCC(=O)NCc1ccc(Nc2nc3c(s2)CCCc2ccc(F)cc2-3)cc1 (as salt: HCl)	175 to 178 °C
CC(C)N(C=O)C[C@H]1CC[C@H](Nc2nc3c(s2)CCCc2ccc(F)cc2-3)CC1 (as salt: salt)	106 to 107 °C
CCCN(C=O)C[C@H]1CC[C@H](Nc2nc3c(s2)CCOc2ccccc2-3)CC1	53 to 55 °C
CCN(C=O)[C@H]1CC[C@H](CNc2nc3c(s2)CCOc2ccccc2-3)CC1 (as salt: HCl)	210 to 213 °C

input: Given the compound "O=S(=O)(NCCCCCNc1nc2c(s1)CCCc1ccc(F)cc1-2)c1cccs1" , what is its reported melting point?
output: 152 to 154 °C

input: Item "CS(=O)(=O)NCc1ccc(Nc2nc3c(s2)CCCc2ccc(F)cc2-3)cc1" has what recorded melting point?
output: 148 to 150 °C

input: What does the record list as melting point for "COc1ccc2c(c1)OCCc1sc(NC[C@H]3CC[C@H](NS(C)(=O)=O)CC3)nc1-2" ?
output: 65 to 70 °C

* * *

biological target: human Y5 receptor (h NPY-5) (Homo sapiens); construct: expressed in transfected cells; host or cells: mouse fibroblast LM(tk-) cells, e.g. L-hY5-7 (ATCC CRL-11995); assay: Functional assay: radioimmunoassay of cAMP; type: cell-based; conditions: functional antagonism, forskolin-stimulated cAMP, cells stably transfected with human Y5
Sequence (Q15761 whole entry): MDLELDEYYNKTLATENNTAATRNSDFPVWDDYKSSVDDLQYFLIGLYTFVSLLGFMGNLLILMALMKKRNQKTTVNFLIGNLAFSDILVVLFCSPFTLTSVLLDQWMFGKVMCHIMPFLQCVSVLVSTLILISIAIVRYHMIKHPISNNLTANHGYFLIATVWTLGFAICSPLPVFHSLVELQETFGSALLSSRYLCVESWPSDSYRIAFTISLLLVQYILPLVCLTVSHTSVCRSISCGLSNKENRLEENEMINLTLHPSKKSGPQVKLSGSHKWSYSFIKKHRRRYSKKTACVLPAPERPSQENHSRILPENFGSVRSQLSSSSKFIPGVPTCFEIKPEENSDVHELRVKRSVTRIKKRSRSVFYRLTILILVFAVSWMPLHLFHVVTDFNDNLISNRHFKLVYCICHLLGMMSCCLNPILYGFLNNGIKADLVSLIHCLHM
Measured log10 Kb values are reported for all entries that follow.
Kindly note that the scale is log10 and the underlying Kb is in nM.

Study these solved cases before continuing.
CS(=O)(=O)N[C@H]1CC[C@H](Nc2nc3c(s2)CCCc2ccc(F)cc2-3)CC1	1.80
O=S(=O)(NCCCCCNc1nc2c(s1)CCCc1ccc(F)cc1-2)c1ccccc1F	0.50
COCC(=O)NC[C@H]1CC[C@H](Nc2nc3c(s2)CCCc2ccc(F)cc2-3)CC1	1.60
NS(=O)(=O)N[C@H]1CC[C@H](CNc2nc3c(s2)CCCc2ccc(F)cc2-3)CC1	0.20
CS(=O)(=O)N[C@H]1CC[C@H](CNc2nc3c(s2)CCCc2ccc(F)cc2-3)CC1	1.20
O=C1OCCN1C[C@H]1CC[C@H](Nc2nc3c(s2)CCCc2ccc(F)cc2-3)CC1	1.10
CN(C)S(=O)(=O)NC[C@H]1CC[C@H](Nc2nc3c(s2)CCCc2ccc(F)cc2-3)CC1	1.10

Okay, now this compound:
input: Bench note: what log10 Kb did "COc1ccc(C)cc1S(=O)(=O)NCCCCCNc1nc2c(s1)CCCc1ccc(F)cc1-2" show?
output: 0.40

* * *

molecular target: human Y5 receptor (hNPY-5) (Homo sapiens); construct: expressed in transfected cells; host or cells: mouse fibroblast LM(tk-) cells, e.g. L-hY5-7 (ATCC CRL-11995); assay: Radioligand binding to membranes, cloned human Y5 receptor; settings: cloned human NPY Y5 receptor, radioligand competition binding; Tables 1-3; read-out: Ki, nM hNPY-5
Structures can show the parent of a compound that is named as a salt.
The following ranges of Ki define the classes used here: lo = under 7 nM, med = from 7 nM up to 20 nM, hi = 20 nM and over

O=S(=O)(N[C@H]1CC[C@H](Nc2nc3c(s2)CCCc2ccc(F)cc2-3)CC1)c1cccnc1	med
NS(=O)(=O)NCCCCCNc1nc2c(s1)CCCc1ccc(F)cc1-2	lo
COc1ccc(C)cc1S(=O)(=O)NCCCCCNc1nc2c(s1)CCCc1ccc(F)cc1-2	lo
COc1cccc2c1OCCc1sc(N[C@H]3CC[C@H](CNS(C)(=O)=O)CC3)nc1-2	hi
COc1ccc(C)cc1S(=O)(=O)NC[C@H]1CC[C@H](Nc2nc3c(s2)CCOc2ccccc2-3)CC1	med
COc1ccc2c(c1)CCCc1sc(NC[C@H]3CC[C@H](NS(C)(=O)=O)CC3)nc1-2	lo
CN(C)S(=O)(=O)NCCCCCNc1nc2c(s1)CCCc1ccc(F)cc1-2	lo
COc1cccc2c1OCCc1sc(NC[C@H]3CC[C@H](NS(C)(=O)=O)CC3)nc1-2 [Example 65, hydrochloride]	med
COCC(=O)NC[C@H]1CC[C@H](Nc2nc3c(s2)CCCc2ccc(F)cc2-3)CC1	hi
O=S(=O)(N[C@H]1CC[C@H](CNc2nc3c(s2)CCCc2ccc(F)cc2-3)CC1)c1cccnc1	lo

input: // return the class label for "CCS(=O)(=O)N[C@H]1CC[C@H](CNc2nc3c(s2)CCOc2cc(OC)ccc2-3)CC1"
output: hi

input: Textbook exercise: identify the category of the compound given here, "COc1ccc2c(c1)OCCc1sc(NC[C@H]3CC[C@H](NS(C)(=O)=O)CC3)nc1-2" , according to its measured value.
output: hi

input: Kindly state the category for this compound: "COCCN(C=O)[C@H]1CC[C@H](CNc2nc(-c3ccccc3)cs2)CC1"
output: hi

* * *

target: human Y5 receptor (hNPY-5) (Homo sapiens, UniProt Q15761); construct: expressed in transfected cells; host or cells: mouse fibroblast LM(tk-) cells, e.g. L-hY5-7 (ATCC CRL-11995); assay: Radioligand binding to membranes, cloned human Y5 receptor; details: cloned human NPY Y5 receptor, radioligand competition binding; Tables 1-3; read-out: Ki, nM hNPY-5
Sequence (Q15761 whole entry): as above
propertyLabel: Ki (nM)
State just the number; it will be interpreted in nM.

O=S(=O)(CC(F)(F)F)NCCCCNc1nc2c(s1)CCCc1ccc(F)cc1-2	4.8
O=S(=O)(NCCCCCNc1nc2c(s1)CCCc1ccc(F)cc1-2)c1ccc(F)c(F)c1	11
COc1ccc(S(=O)(=O)N[C@H]2CC[C@H](Nc3nc4c(s3)CCCc3ccc(F)cc3-4)CC2)cc1	60

input: Entry "CCS(=O)(=O)NCCCCCNc1nc2c(s1)CCCc1ccc(F)cc1-2" : reported Ki = ?
output: 2.5

* * *

target: human Y5 receptor (hNPY-5) (Homo sapiens); construct: expressed in transfected cells; host or cells: mouse fibroblast LM(tk-) cells, e.g. L-hY5-7 (ATCC CRL-11995); assay: Radioligand binding to membranes, cloned human Y5 receptor; conditions: binding Ki as repeated in Table 4; read-out: Ki (h NPY-5)
propertyLabel: Ki (nM)
The reply should contain only the number, in nM.

CS(=O)(=O)NC[C@H]1CC[C@H](Nc2nc3c(s2)CCCc2ccc(F)cc2-3)CC1	6.4
O=S(=O)(NCCCCCNc1nc2c(s1)CCCc1ccc(F)cc1-2)c1ccccc1F	4.5
O=S(=O)(NCCCCCNc1nc2c(s1)CCCc1ccc(F)cc1-2)c1cccc2ccccc12	19.5

As a next step, examine the molecule that follows.
input: Report Ki for "O=C1OCCN1C[C@H]1CC[C@H](Nc2nc3c(s2)CCCc2ccc(F)cc2-3)CC1" please.
output: 20.1
